target: ARHGEF12, Q9NZN5-2; test: holdup assay; parameters: key: below the threshold = too weak to quantify, mostly under pKd 3.1 to 4; settings: plain residues with an end cap or a label only (N-terminal biotin on a linker: ado-ado)
Sequence (Q9NZN5 other isoform, or with tags, fused parts or gaps): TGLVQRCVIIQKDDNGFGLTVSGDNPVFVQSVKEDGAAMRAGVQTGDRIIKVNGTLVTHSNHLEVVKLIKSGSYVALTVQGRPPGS
Measured Parameter: pKd
No unit in the answer, only the number.

As a guide, the following entries are already answered.
Record summary for WAKEKQHTRL [SLC17A1, Q14916] : reported pKd = 4.84

Record summary for NKSEPFLTWL [WWTR1, Q9GZV5] : reported pKd = 4.95

Record summary for RDYTQSSSSL [GRM5, P41594] : reported pKd = 4.28

Record summary for EPAKETTTNV [SLC2A3, P11169] : reported pKd = 3.87

More entries:
Record summary for VISSDDLTEL [CAPN6, Q9Y6Q1] : reported pKd = 4.91

Record summary for KLQNPNQSVV [TYRP1, P17643] : reported pKd = 3.92

Record summary for QKNKDREYYV [NRXN3, Q9HDB5] : reported pKd = 3.65

Record summary for SGDGKTSVWI [GJC1, P36383] : reported pKd = 3.61
